- System Tested: GATA2-Zf (UniProt P23769 291-412)
- Sequence (P23769 291-412): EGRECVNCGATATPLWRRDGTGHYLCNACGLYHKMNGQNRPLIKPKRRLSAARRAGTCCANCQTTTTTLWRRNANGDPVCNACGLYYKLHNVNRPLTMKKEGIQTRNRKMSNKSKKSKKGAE
- Method Description: fluorescence anisotropy; Hill n 3.1±0.4; Fluorescence anisotropy: 10 nM DNA, 20 mM Hepes pH 8.0, 50 mM NaCl, 1 mM MgCl2, 3 mM DTT, 5% glycerol, 10°C; agarose gel 1.3% in 0.5x TBE
- Stated Conditions: protein: recombinant; tags: His, thrombin treated; label: 5' fluorescein (FITC) on forward strand; blunt
Readout Kind: Kd (nM)
Numbers only, in nM.

q: Item TSH GATA-RE (dsDNA) DNA 1: TCAATAGATGCTTTTCAGATAAGAA DNA 2: TTCTTATCTGAAAAGCATCTATTGA has what recorded Kd?
a: 689
